# study target: Voltage-gated inwardly rectifying potassium channel KCNH2 (Homo sapiens)
# assay text: Human Ether-a-go-go-Related Gene (hERG) channel small molecule antagonists: fluorescence cell-based qHTS assay (AID 1671200); further: nearly all actives have a fitted effect of over 50% in size
# measurement parameters: hERG-U2OS cells, FluxOR thallium flux fluorescence; series mostly up to 76.8 µM
Inconclusive results are not listed. Activity calls are given as the source filed them. The call rests on the fitted dose curve; in most records, active means well fitted inhibition curve with a large enough effect in the repeat runs; inconclusive means weak or mixed curves; inactive means flat fitted curve, though single readings scatter.
Result category, one only: 1.0 = active, 0.0 = inactive

Ask: How did this test come out for O=C(O)c1cccc(C(=O)O)c1 ?
Result: 0.0

Ask: How did this test come out for CCC(=O)/C=C/C1C(C)=CCCC1(C)C (configuration not stated) ?
Result: 0.0

Ask: How did this test come out for O=S(=O)(O)c1ccc2nc(-c3ccccc3)[nH]c2c1 ?
Result: 0.0

Ask: How did this test come out for Nc1ccc(O)cc1 ?
Result: 0.0

Ask: How did this test come out for CCCCCCCCCCCC[N+](C)(C)C ?
Result: 1.0

Ask: How did this test come out for CCc1ccc(C(c2ccc(CC)cc2)C(Cl)Cl)cc1 ?
Result: 0.0

Ask: How did this test come out for Cc1cc(C2(c3cc(C)c(O)cc3C)OS(=O)(=O)c3ccccc32)c(C)cc1O ?
Result: 0.0

###

# study target: Bile acid receptor (Homo sapiens)
# assay text: qHTS assay to identify small molecule agonists of the farnesoid-X-receptor (FXR) signaling pathway (AID 743220); further: on the % scale 0 is the no-effect control and ±100 the full control effect
# measurement parameters: HEK293T FXR-UAS-bla, beta-lactamase FRET ratio, 16 h; series mostly up to 62.6 µM
Records with an inconclusive call do not appear. Calls of active or inactive are those of the source. Calls follow the shape of the dose curve; as a rule, active = well fitted activation curve with a large enough effect in the signal ratio in the repeat runs (not every such curve was filed as active); inconclusive = weak or mixed curves, or effect the other way; inactive = flat fitted curve, though single readings scatter; the % refers to the signal ratio.
observable: activation

Here are 10 compounds together with their reported answers.
[
  {
    "compound": "Cc1ccc(S(=O)(=O)Oc2ccc(N=Nc3ccc(-c4ccc(N=Nc5c(O)ccc6cc(S(=O)(=O)O)cc(S(=O)(=O)O)c56)c(C)c4)cc3C)cc2)cc1",
    "study target": "Bile acid receptor (Homo sapiens)",
    "activation": "inactive"
  },
  {
    "compound": "CC(=O)O[C@]1(C(C)=O)CC[C@H]2[C@@H]3C[C@H](C)C4=CC(=O)CC[C@]4(C)[C@H]3CC[C@@]21C",
    "study target": "Bile acid receptor (Homo sapiens)",
    "activation": "inactive"
  },
  {
    "compound": "c1cnc2cc3c(cc2n1)C1CNCC3C1",
    "study target": "Bile acid receptor (Homo sapiens)",
    "activation": "inactive"
  },
  {
    "compound": "C=C(C)C1CC=C(C)C(OC(C)=O)C1 (stereo unspecified)",
    "study target": "Bile acid receptor (Homo sapiens)",
    "activation": "inactive"
  },
  {
    "compound": "O=C(O)Cn1cnnn1",
    "study target": "Bile acid receptor (Homo sapiens)",
    "activation": "inactive"
  },
  {
    "compound": "c1ccc2cc3c(ccc4ccccc43)cc2c1",
    "study target": "Bile acid receptor (Homo sapiens)",
    "activation": "inactive"
  },
  {
    "compound": "Cc1cc(Cc2cc(C)cc(C(C)(C)C)c2O)c(O)c(C(C)(C)C)c1",
    "study target": "Bile acid receptor (Homo sapiens)",
    "activation": "inactive"
  },
  {
    "compound": "CC(=O)OCCOCCOCCOC(C)=O",
    "study target": "Bile acid receptor (Homo sapiens)",
    "activation": "inactive"
  },
  {
    "compound": "CCCCOCCOC(=O)c1ccccc1C(=O)OCCOCCCC",
    "study target": "Bile acid receptor (Homo sapiens)",
    "activation": "inactive"
  },
  {
    "compound": "COc1ccc(Cc2cnc(N)nc2N)cc1OC",
    "study target": "Bile acid receptor (Homo sapiens)",
    "activation": "inactive"
  }
]

According to the records, this compound COc1ccc(COC(C)=O)cc1 displays activation of inactive
